Measured values drawn from the supplement of paper PMC11208160 for this set.

- protocol-notes: recombinant UMI read abundance after kanamycin selection (control-corrected) (log10(CPM+1)); higher = more efficient recombination; extreme values may be limits of the assay; sequences stand for … in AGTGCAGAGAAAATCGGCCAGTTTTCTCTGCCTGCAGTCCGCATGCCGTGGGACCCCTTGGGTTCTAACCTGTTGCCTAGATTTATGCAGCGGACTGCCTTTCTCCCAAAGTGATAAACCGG…AGGTTGGTTTCACT; site = the 11-nt donor;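 further: IS621 bridge recombinase in Escherichia coli cells against a fixed T5 target plasmid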
Hi there, I'd appreciate the recorded recombinant UMI read abundance (log10) for every entry that follows.
Format: numeric value only, no unit, no commentary.

Suppose we examine the sequence GTGACAACATGGACCGGTTTTCCCGGTAATCCGTATTTGAC (site GTGACAACTGT) ; what recombinant UMI read abundance (log10) value has been reported?
2.91

Also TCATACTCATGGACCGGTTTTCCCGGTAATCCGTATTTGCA (site TAATACTCTTG) ?
1.45

Also CCAGGAGCATGGACCGGTTTTCCCGGTAATCCGTATTTGAT (site CCAGGGGCTAT) ?
0.941

Also CGGGGACCATGGACCGGTTTTCCCGGTAATCCGTATTTGAT (site CGGGGACCTAT) ?
0

Also CCCATATCATGGACCGGTTTTCCCGGTAATCCGTATTTGGC (site CCCATATCTGG) ?
0
